tested on: HBV; test: Antiviral activity in AML12HBV10 cells (HBV DNA dot-blot hybridization); type: cell-based; details: Hepatitis B virus, Table 33, scaffold (XIV) drawing 940, 48 hours
pEC50: −log10 of the molar value.
PROPERTY NAME: pEC50

Problem: Look at this compound and give its reported pEC50. "Cc1ccc(S(=O)(=O)N[C@H](C)C(C)C)cc1C(=O)Nc1ccc(F)c(F)c1"
Solution: > 6.00

Problem: Continue with "CC(C)[C@@H](C)NS(=O)(=O)c1ccc(Cl)c(C(=O)Nc2ccc(F)c(F)c2)c1"
Solution: > 6.00

Problem: Continue with "COc1ccc(S(=O)(=O)N[C@H](C)C(C)C)cc1C(=O)Nc1ccc(F)c(F)c1"
Solution: > 6.00

Problem: Continue with "CC(C)[C@@H](C)NS(=O)(=O)c1cc(C(=O)Nc2ccc(F)c(F)c2)c(F)cc1F"
Solution: 5.30 to 6.00
